- target-under-test: hNotch1ICD (Homo sapiens)
- Construct: pLV[Tet]-Puro-TRE3G>Notch1-ICD; expressed in transfected cells; host or cells: 293A cells
- measurement-description: Notch1 Reporter Assay (Dox-inducible Notch1-ICD, CSL-responsive luciferase in 293A cells)
- Format: cell-based
- condition-info: 293A cells, 24 h, luciferase normalized to cell viability; read-out: Notch1 Reporter Assay IC50
pIC50: −log10 of the molar value.
Entries whose pIC50 is below 5 take yes; entries at or above 5 take no.

compound: CC(C)Cn1c(=O)c(C(=O)NCc2ccco2)c(O)c2ccccc21 [compound 541]
category-label: yes
//
compound: CC(C)Cn1c(=O)c(C(=O)Nc2ccccc2F)c(O)c2ccccc21 [compound 537]
category-label: no
//
compound: CC(C)Cn1c(=O)c(C(=O)Nc2cc(Cl)ccn2)c(O)c2ccccc21 [compound 526]
category-label: yes
//
compound: CC(C)Cn1c(=O)c(C(=O)Nc2ccc(F)c(N3CCN(C)CC3)c2)c(O)c2ccccc21 [584(01)]
category-label: no
//
compound: CC(C)Cn1c(=O)c(C(=O)Nc2cccc(N(C)CC3CC3)c2)c(O)c2ccccc21 [compound 562]
category-label: yes
//
compound: Cc1cnccc1NC(=O)c1c(O)c2ccccc2n(CC(C)C)c1=O [compound 551]
category-label: no

* * *

Quick reference: pIC50 of the listed items.
- target-under-test: hNotch1ICD (Homo sapiens, UniProt P46531)
- Construct: pLV[Tet]-Puro-TRE3G>Notch1-ICD; expressed in transfected cells; host or cells: 293A cells
- Sequence (P46531 1754-2555 limits assumed): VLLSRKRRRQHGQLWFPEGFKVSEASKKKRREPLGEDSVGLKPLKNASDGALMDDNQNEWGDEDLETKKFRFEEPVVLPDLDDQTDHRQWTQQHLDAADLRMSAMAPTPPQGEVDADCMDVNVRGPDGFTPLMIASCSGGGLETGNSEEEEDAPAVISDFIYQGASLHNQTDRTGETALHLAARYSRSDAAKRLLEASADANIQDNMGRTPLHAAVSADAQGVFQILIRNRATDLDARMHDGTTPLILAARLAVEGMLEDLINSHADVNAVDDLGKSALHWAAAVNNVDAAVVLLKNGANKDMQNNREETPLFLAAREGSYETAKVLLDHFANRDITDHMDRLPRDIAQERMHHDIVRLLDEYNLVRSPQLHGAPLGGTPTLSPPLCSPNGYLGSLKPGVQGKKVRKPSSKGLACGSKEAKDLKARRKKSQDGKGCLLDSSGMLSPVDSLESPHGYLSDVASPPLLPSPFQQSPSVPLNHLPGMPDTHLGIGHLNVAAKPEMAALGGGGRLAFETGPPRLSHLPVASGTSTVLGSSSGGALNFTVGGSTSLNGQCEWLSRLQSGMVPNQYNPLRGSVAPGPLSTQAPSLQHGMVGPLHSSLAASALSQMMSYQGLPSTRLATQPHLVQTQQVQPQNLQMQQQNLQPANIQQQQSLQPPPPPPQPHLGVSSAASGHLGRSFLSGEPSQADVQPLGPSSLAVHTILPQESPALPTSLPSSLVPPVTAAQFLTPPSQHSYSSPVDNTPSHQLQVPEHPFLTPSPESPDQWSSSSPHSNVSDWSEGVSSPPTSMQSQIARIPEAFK
- measurement-description: Notch1 Reporter Assay (Dox-inducible Notch1-ICD, CSL-responsive luciferase in 293A cells)
- Assay type: cell-based
- condition-info: 293A cells, 24 h, luciferase normalized to cell viability; read-out: Notch1 Reporter Assay IC50
pIC50: −log10 of the molar value.
value-kind: pIC50

item-smiles: COc1ccc2c(c1)c(O)c(C(=O)Nc1ncccc1C)c(=O)n2CC(C)C
value-kind: pIC50
assay-result: 4.87
--
item-smiles: O=C(Nc1ccc(F)cc1)c1c(O)c2cccnc2n(-c2ccccc2)c1=O
value-kind: pIC50
assay-result: 5.05
--
item-smiles: CC(C)Cn1c(=O)c(C(=O)Nc2cccc(F)c2)c(O)c2ccccc21
value-kind: pIC50
assay-result: 5.02
--
item-smiles: O=C(Nc1ncccc1O)c1c(O)c2c([nH]c1=O)CCCC2
value-kind: pIC50
assay-result: 4.92

* * *

Quick reference: IC50 of the listed items.
- target-under-test: hNotch1ICD (Homo sapiens, UniProt P46531)
- Construct: pLV[Tet]-Puro-TRE3G>Notch1-ICD; expressed in transfected cells; host or cells: 293A cells
- measurement-description: Notch1 Reporter Assay (Dox-inducible Notch1-ICD, CSL-responsive luciferase in 293A cells)
- Type: cell-based
- condition-info: 293A cells, 24 h, luciferase normalized to cell viability; read-out: Notch1 Reporter Assay IC50
value-kind: IC50 (µM)

molecule: CC(C)Cn1c(=O)c(C(=O)Nc2cccc(F)c2)c(O)c2cc(N3CCN(C)CC3)ccc21 [577(01)]
unit-abbrev: µM
assay-result: 9.7
--
molecule: Cc1cc(NC(=O)c2c(O)c3ccccc3n(CC(C)C)c2=O)n[nH]1
unit-abbrev: µM
assay-result: 10.1
--
molecule: CC(C)Cn1c(=O)c(C(=O)Nc2cccc(F)c2)c(O)c2c(N3CCN(C)CC3)cccc21 [588(01)]
unit-abbrev: µM
assay-result: 10.3
--
molecule: CC(C)Cn1c(=O)c(C(=O)Nc2cccc(F)c2N2CCN(C)CC2)c(O)c2ccccc21 [581(01)]
unit-abbrev: µM
assay-result: 7.8
--
molecule: CC(C)Cn1c(=O)c(C(=O)Nc2ccon2)c(O)c2ccccc21
unit-abbrev: µM
assay-result: 13.8
--
molecule: Cc1cccnc1NC(=O)c1c(O)c2ccccc2n(CC(C)C)c1=O
unit-abbrev: µM
assay-result: 11.1
--
molecule: CC(C)Cn1c(=O)c(C(=O)Nc2cc(N3CCOCC3)ccn2)c(O)c2ccccc21
unit-abbrev: µM
assay-result: 8.5
--
molecule: CC(C)Cn1c(=O)c(C(=O)Nc2cc(F)cc(N3CCN(C)CC3)c2)c(O)c2ccccc21 [583(01)]
unit-abbrev: µM
assay-result: 8.1

Source: patent US20230203003A1
